# measurement-target: Free fatty acid receptor 1 (Homo sapiens)
# method-description: Agonist activity at human GPR40 expressed in CHO cells assessed as intracellular calcium mobilization by FLIPR assay
# Assay type: functional, cell-based
metric: log10 of EC50 (log10 of the value in nM)
# values: log10(EC50), units nM

A selection of reference data follows.
>>> print(df.to_string())
                                   molecule                        measurement_target  observed_value
0  CC#CC(CC(=O)O)c1ccc(Oc2ncc(C(F)(F)F)cc2Cl)cc1 (racemic)  Free fatty acid receptor 1 (Homo sapiens)            2.03
1  CC#CC(CC(=O)O)c1ccc(Oc2ccc(C(F)(F)F)cc2C)cc1 (racemic)  Free fatty acid receptor 1 (Homo sapiens)            1.97
2  CC#CC(CC(=O)O)c1ccc(Oc2ccc(C(F)(F)F)c3ccccc23)cc1 (racemic)  Free fatty acid receptor 1 (Homo sapiens)            3.15
3  O=C1NC(=O)C(Cc2ccc(Oc3ccc(F)cc3)cc2)S1 (stereo not given)  Free fatty acid receptor 1 (Homo sapiens)            2.68
4   O=C(O)CCc1ccc(Oc2ccc(C(F)(F)F)cc2Cl)cc1  Free fatty acid receptor 1 (Homo sapiens)            2.84

Fill blank: measured log10 of EC50 of the molecule `O=C(O)CCc1ccc(Oc2ccc(Cl)cc2Cl)cc1` is ____. 3.13

Fill blank: measured log10 of EC50 of the molecule CC#CC(CC(=O)O)c1ccc(Oc2ccc(C(F)(F)F)cc2OC(F)F)cc1 (racemic) is ____. 1.85

Fill blank: measured log10 of EC50 of the molecule CC#C[C@]1(c2ccc(Oc3ccc(C(F)(F)F)cc3Cl)cc2)C[C@H]1C(=O)O (racemic) is ____. 4.39

Fill blank: measured log10 of EC50 of the molecule CC#C[C@@H](c1ccc(Oc2ccc(C(F)(F)F)cc2OC(F)F)cc1)[C@H]1OC(=O)NC1=O (racemic) is ____. 2.11

---

# measurement-target: Free fatty acid receptor 1 (Mus musculus)
# Sequence (Q76JU9 whole entry): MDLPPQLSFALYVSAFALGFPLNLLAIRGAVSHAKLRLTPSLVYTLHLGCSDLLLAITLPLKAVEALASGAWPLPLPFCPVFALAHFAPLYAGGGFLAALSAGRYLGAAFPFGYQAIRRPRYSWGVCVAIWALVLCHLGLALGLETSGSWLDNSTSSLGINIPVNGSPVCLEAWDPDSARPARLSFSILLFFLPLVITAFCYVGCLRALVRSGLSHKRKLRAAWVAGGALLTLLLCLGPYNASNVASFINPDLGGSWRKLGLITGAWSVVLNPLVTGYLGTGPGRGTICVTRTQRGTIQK
# method-description: Agonist activity at mouse GPR40 expressed in CHO cells assessed as intracellular calcium mobilization by FLIPR assay
Mark criterion met only when EC50 stays strictly below 900 nM. Values equal to the cut-off are criterion not met.

>>> df
                                   compound            cat
0  CC#CC(CC(=O)O)c1ccc(Oc2ccc(C(F)(F)F)cc2OC(F)F)cc1F (racemic)  criterion met

Here's an entry: CC#C[C@H](c1ccc(Oc2ccc(C(F)(F)F)cc2OC(F)F)cc1)[C@H]1OC(=O)NC1=O (racemic) . Is its EC50 below 900 nM? criterion not met

---

pIC50: −log10 of the molar value.
Observed pIC50, system Cytochrome P450 3A4 (Homo sapiens, UniProt P08684).

Fill blank: measured pIC50 of the molecule CC#CC(CC(=O)O)c1ccc(Oc2ccc(C(F)(F)F)cc2OC(F)F)cc1F (racemic) is ____. < 4.30

Fill blank: measured pIC50 of the molecule CC#CC(CC(=O)O)c1ccc(Oc2ccc(C(F)(F)F)cc2OC(F)F)cc1 (racemic) is ____. < 4.30

---

Reported EC50 values for the following compounds.
# measurement-target: Free fatty acid receptor 1 (Homo sapiens, UniProt O14842)
# Sequence (O14842 whole entry): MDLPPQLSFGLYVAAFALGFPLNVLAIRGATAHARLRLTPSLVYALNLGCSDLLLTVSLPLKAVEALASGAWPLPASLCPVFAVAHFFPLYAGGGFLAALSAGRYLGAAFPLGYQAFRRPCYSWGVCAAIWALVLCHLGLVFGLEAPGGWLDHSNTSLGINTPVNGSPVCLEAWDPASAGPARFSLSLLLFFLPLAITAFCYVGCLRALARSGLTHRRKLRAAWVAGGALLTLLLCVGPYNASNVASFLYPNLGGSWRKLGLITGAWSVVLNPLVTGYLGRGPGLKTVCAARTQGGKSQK
# method-description: Agonist activity at human GPR40 expressed in HEK293 cells assessed as [3H]IP3 production in presence of 0.4% serum albumin
# Assay type: functional, cell-based
State just the number; it will be interpreted in nM.

Fill blank: measured EC50 of the compound CC#CC(CC(=O)O)c1ccc(Oc2ccc(C#N)cc2Cl)cc1 (racemic) is ____. 597

Fill blank: measured EC50 of the compound CC#CC(CC(=O)O)c1ccc(Oc2ccc(C#N)c3ccccc23)cc1 (racemic) is ____. 247

Source: ChEMBL document CHEMBL1777807
